tested on: cocklebur (Xanthium strumarium, XANST); test: Greenhouse herbicide screen, pre-emerge application, phytotoxicity rating; assay type: in vivo; conditions: PRE emergent, 250 g ai/ha, 14 days after application, rating scale 0-100
property: phytotoxicity rating XANST
One number for each entry.

CC(=NNC(=O)c1cc(-n2c(=O)cc(C(F)(F)F)n(C)c2=O)c(F)cc1Cl)C(C)(C)C :: 99
CC1CCCC(C)N1NC(=O)c1cc(-n2c(=O)cc(C(F)(F)F)n(C)c2=O)c(F)cc1Cl (stereo not drawn) :: 100
COC(=NN=C(C(C)(C)C)C(C)(C)C)c1cc(-n2c(=O)cc(C(F)(F)F)n(C)c2=O)c(F)cc1Cl :: 10
CCOC(=O)NNC(=O)c1cc(-n2c(=O)cc(C(F)(F)F)n(C)c2=O)c(F)cc1Cl :: 100
Cn1c(C(F)(F)F)cc(=O)n(-c2cc(C(=O)NN=C(C(C)(C)C)C(C)(C)C)c(Cl)cc2F)c1=O :: 100
CN(N=C(C(C)(C)C)C(C)(C)C)C(=O)c1cc(-n2c(=O)cc(C(F)(F)F)n(C)c2=O)c(F)cc1Cl :: 70
CN1CCN(NC(=O)c2cc(-n3c(=O)cc(C(F)(F)F)n(C)c3=S)c(F)cc2Cl)CC1 :: 65
Cn1c(C(F)(F)F)cc(=O)n(-c2cc(C(=O)NN3CCCC3)c(Cl)cc2F)c1=O :: 40
Cn1c(C(F)(F)F)cc(=O)n(-c2cc(C(=O)NN(Cc3ccccc3)Cc3ccccc3)c(Cl)cc2F)c1=O :: 90
CN(NC(=O)c1cc(-n2c(=O)cc(C(F)(F)F)n(C)c2=O)c(F)cc1Cl)c1ccccc1 :: 70

Answer for every listed entry: what is its phytotoxicity rating XANST? The entries follow.
1. CN(C)NC(=O)c1cc(-n2c(=O)cc(C(F)(F)F)n(C)c2=O)ccc1Cl
2. Cn1c(C(F)(F)F)cc(=O)n(-c2cc(C(=O)NN=C(c3ccccc3)c3ccccc3)c(Cl)cc2F)c1=O

1. 60
2. 60

src = patent US6770597B2
